tested on: survivin; assay: Western blot of survivin protein in antisense oligonucleotide-treated MSN cells; type: cell-based, human; conditions: 400 nM, lipofectin, 48 hours (FIG. 3A)
Oligonucleotides are written 5' to 3', each unit as a sugar letter and its base; * is a phosphorothioate linkage, no mark a phosphodiester; rarer units and linkages stand in square brackets, end groups in braces. Plain capitals give the bases only. d = 2'-deoxy (DNA)
value_type: percentage of survivin protein over β-tubulin relative to lipofectin (%)
Number in %, nothing else.

Q) Look up and report measured percentage of survivin protein over β-tubulin relative to lipofectin for this entry: d(CCCTAGCTCACACTCTCATT) (antisense dC*dC*dC*dT*dA*dG*dC*dT*dC*dA*dC*dA*dC*dT*dC*dT*dC*dA*dT*dT) [Oligo 903, 20-mer phosphorothioate survivin antisense oligonucleotide, complementary to survivin mRNA 4385-4404]
A) 24.3

Q) Supply measured percentage of survivin protein over β-tubulin relative to lipofectin of d(TCTTGGCTCTTTCTCTGTCC) (antisense dT*dC*dT*dT*dG*dG*dC*dT*dC*dT*dT*dT*dC*dT*dC*dT*dG*dT*dC*dC) [Oligo 904, 20-mer phosphorothioate survivin antisense oligonucleotide, complementary to survivin mRNA 5248-5267] in your reply.
A) 35.7

Data provenance: patent US20030125287A1
